These data points were gathered from patent US20250388688A1.

Assayed target: soluble TSHR protein (ELISA coat) (human, UniProt P16473 22-260, limits assumed)
Run description: ELISA, plate coated with soluble TSHR, antibody at 33.3 nM, anti-human IgG Fc-HRP;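 further: binding of antibody variants to plate-bound soluble TSHR (coated at 2 µg/ml), with bound human IgG detected by HRP conjugate and colour developed using TMB substrate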
Quantity kind: ELISA (OD 450) at 33.3 nM
Give just the number in OD 450; leave the unit off.

What value of ELISA (OD 450) at 33.3 nM has been recorded for this entry: TSHB-6 (antibody, V domains shown) VH: EVQLVQSGAEVKKPGESLKISCKASGYSLNDNWIGWVRQKPGKGLEWMGIIYPGDSDTRYSPSFQGQVTISADKSISTAYLQWSSLKASDTAIYYCVGLDWNYNPLRYWGQGTLVTVSS VL: QSVLTQPPSVSAAPGQKVTISCSGSSSDIGSNYVSWYQQFPGTAPKLLIYDNNKRPSAIPDRFSGSKSGTSATLGITGLQTGDEADYYCGTWDSRLGIAVFGGGTQLTVL
0.45

Name the reported ELISA (OD 450) at 33.3 nM value associated with the binder parental TSHR-binding antibody (antibody, V domains shown, it has a human Fc (captured on anti-human Fc, detected with anti-human IgG Fc); also called parental antibody; parental anti-TSHR antibody) VH: EVQLVQSGAEVKKPGQSLKISCKASGYSLTDNWIGWVRQKPGKGLEWMGIIYPGDSDTRYSPSFQGQVTISADKSINTAYLQWSSLKASDTAIYYCVGLDWNYNPLRYWGPGTLVTVSS VL: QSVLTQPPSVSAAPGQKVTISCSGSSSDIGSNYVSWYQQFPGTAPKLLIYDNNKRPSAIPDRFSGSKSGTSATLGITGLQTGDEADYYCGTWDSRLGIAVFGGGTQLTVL
0.406

So what's the measured ELISA (OD 450) at 33.3 nM for this one? TSHB-4 (antibody, V domains shown) VH: EVQLVQSGAEVKKPGESLKISCKASGYELTDNWIGWVRQKPGKGLEWMGIIYPGDSDTRYSPSFQGQVTISADKSISTAYLQWSSLKASDTAIYYCVGLDWNYNPLRYWGQGTLVTVSS VL: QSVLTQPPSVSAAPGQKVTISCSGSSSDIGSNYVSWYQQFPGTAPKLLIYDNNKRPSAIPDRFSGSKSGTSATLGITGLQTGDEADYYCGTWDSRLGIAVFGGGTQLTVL
0.374

Suppose we examine the binder TSHB-17 (antibody, V domains shown) VH: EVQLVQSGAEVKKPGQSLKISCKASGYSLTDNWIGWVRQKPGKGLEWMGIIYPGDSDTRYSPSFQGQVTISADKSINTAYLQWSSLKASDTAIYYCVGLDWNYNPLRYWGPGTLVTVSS VL: QSVLTQPPSVSAAPGQKVTISCSGSSSDIGSLYVSWYQQLPGTAPKLLIYDNNKRPSGIPDRFSGSKSGTSATLGITGLQTGDEADYYCGTWDSRLGIAVFGGGTQLTVL ; what ELISA (OD 450) at 33.3 nM value has been reported?
0.357

// query ELISA (OD 450) at 33.3 nM value for entry TSHB-20 (antibody, V domains shown) VH: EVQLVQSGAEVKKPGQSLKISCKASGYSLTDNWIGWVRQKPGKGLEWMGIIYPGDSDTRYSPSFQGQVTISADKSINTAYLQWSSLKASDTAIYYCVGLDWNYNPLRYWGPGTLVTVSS VL: QSVLTQPPSVSAAPGQKVTISCSGSSSNIGSNYVSWYQQLPGTAPKLLIYDNNKRPSGIPDRFSGSKSGTSATLGITGLQTGDEADYYCGTWDSRLGIAVFGGGTQLTVL
0.411
